# SYSTEM_UNDER_TEST: Human glucagon receptor (human, UniProt P47871 26-477)
# TEST_PROTOCOL: cell-based or functional assay
Where no end group is shown, it is not given here. [ ]: non-standard residue; d: D form. αMePhe(2-F) = C[C@](N)(Cc1ccccc1F)C(=O)O; Aib = CC(C)(N)C(=O)O
ASSAY_ENDPOINT: cAMP production with saturated glucagon peptide; test compound 10 µM (pmol/ml/µg prt)

Query :: // returns reported cAMP production with saturated glucagon peptide; test compound 10 µM for input HXQGTXTSDXX (Aib at 2; α-Me-2F-Phe at 6; Bip(OMe) at 10; Bip(2Me) at 11) [Seq. ID. No. 29: H-Aib-QGT-(α-Me-2F-Phe)-TSD-Bip(OMe)-Bip(2Me)]
Result :: 1

[P] H[Aib]QGTFTSD[Bip(OMe)][Bip(2Me)] [Seq. ID. No. 13: H-Aib-QGTFTSD-Bip(OMe)-Bip(2Me)]
[Q] H[Aib]QGTFTSD[Bip(OMe)][Bip(2CF3)] [Seq. ID. No. 16: H-Aib-QGTFTSD-Bip(OMe)-Bip(2CF3)]
[R] HAQGT[αMePhe(2-F)]TSD[Bip(OMe)][Bip(2Me)] [Seq. ID. No. 25: HAQGT-(α-Me-2F-Phe)-TSD-Bip(OMe)-Bip(2Me)]
Query :: Order by cAMP production with saturated glucagon peptide; test compound 10 µM, ascending. Record the ranking as a list of labels in the requested order.
Result :: Q, P, R
